Molecular target: T1, mouse TREM2 on BWZ cells (mouse, UniProt Q99NH8 19-227)
T1 construct: whole, on cells; also called BWZ Mouse TREM2
T1 sequence (looked up): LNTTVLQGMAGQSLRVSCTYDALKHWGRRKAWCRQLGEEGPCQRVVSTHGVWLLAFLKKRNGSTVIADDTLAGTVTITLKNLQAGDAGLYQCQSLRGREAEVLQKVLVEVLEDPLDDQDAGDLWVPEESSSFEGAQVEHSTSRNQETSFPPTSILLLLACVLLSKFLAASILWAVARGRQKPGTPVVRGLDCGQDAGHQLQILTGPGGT
Experiment: FACS, BWZ cells

binder	binding result
T1-34 (antibody, IgG1, V domains shown, huIgG1; also called TI-34; ADI-19108) VH: EVQLVESGGGLVKPGGSLRLSCAASGFTFSSYSMNWVRQAPGKGLEWVSSISSSSNYIYYADSVKGRFTISRDNAKNSLYLQMNSLKAEDTAVYYCARRPDDRRGLFQHWGQGTLVTVSS VL: DIQMTQSPSTLSASVGDRVTITCRASQSINSWLAWYQQKPGKAPKLLISDASSLESGVPSRFSGSGSGTEFTLTISSLQPDDFATYYCQQYGPYPYTFGGGTKVEIK	no binding
T1-57 (antibody, IgG1, V domains shown, huIgG1; also called TI-57; ADI-19132) VH: EVQLVESGGGLVQPGRSLRLSCAASGFTFDDYAMHWVRQAPGKGLEWVSGITWNSGSIGYADSVKGRFTISRDNAKNSLYLQMNSLRAEDTALYYCAKGPRYSKPYFDYWGQGTLVTVSS VL: DIQMTQSPSSVSASVGDRVTITCRASQGIDSWLAWYQQKPGKAPKLLIYAASSLQSGVPSRFSGSGSGTDFTLTISSLQPEDFATYYCQQRAVFPPTFGGGTKVEIK	no binding
